We begin with a simple list: items and their reported IC50.
target: IDH1 R132H (Homo sapiens, UniProt O75874, R132H); assay: Mutant IDH1 enzyme assay (diaphorase/resazurin), IDH1 R132H; settings: mean ± SD of at least three determinations
Sequence (O75874 whole entry R132H): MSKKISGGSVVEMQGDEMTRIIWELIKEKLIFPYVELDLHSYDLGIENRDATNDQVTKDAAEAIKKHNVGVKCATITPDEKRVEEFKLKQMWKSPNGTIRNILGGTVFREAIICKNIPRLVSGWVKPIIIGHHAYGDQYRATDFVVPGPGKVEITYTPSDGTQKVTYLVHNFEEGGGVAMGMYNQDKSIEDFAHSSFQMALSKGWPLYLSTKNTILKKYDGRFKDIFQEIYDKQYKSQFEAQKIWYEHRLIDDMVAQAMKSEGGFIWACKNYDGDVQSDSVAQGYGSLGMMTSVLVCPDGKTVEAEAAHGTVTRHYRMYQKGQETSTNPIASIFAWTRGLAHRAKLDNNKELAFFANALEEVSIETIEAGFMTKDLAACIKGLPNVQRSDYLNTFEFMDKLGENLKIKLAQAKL
parameter-measured: IC50 (µM)

1) C[C@H](Nc1ccc(C#N)n(C)c1=O)c1cc2cc(F)ccc2[nH]c1=O [(S)-3]
0.0227
2) C[C@@H](Nc1ccc(C#N)n(C)c1=O)c1cc2cc(I)ccc2[nH]c1=O [(R)-2]
0.323
3) C[C@H](Nc1ccc(C#N)n(C)c1=O)c1cc2cc(I)ccc2[nH]c1=O [(S)-2]
0.00523
4) C[C@@H](Nc1ccc(C#N)n(C)c1=O)c1cc2cc(F)ccc2[nH]c1=O [(R)-3]
0.698

The values you see were collected from paper PMC9228733.
